assay: Cytotoxicity in HeLa cells, ATP content measured with the ATPlite kit; format: cell-based; settings: human, TOX HELA pCC50

{"compound": "CCc1cc(C(=O)N2CCCc3ccccc3C2C)nc2cc(-c3ccc(C(=O)O)cc3F)nn12 (stereo not drawn) [Compound K8]", "CC50 at 3 days": "> 25.1 µM"}
{"compound": "CCc1cc(C(=O)N2CCCCC2C)nc2cc(-c3ccc(-c4ccncc4)cc3)nn12 (stereo not drawn) [Compound F1]", "CC50 at 3 days": "38 µM"}
{"compound": "CCc1cc(C(=O)N2CCCCCC2C)nc2cc(-c3ccc(NC(=O)NCC4CCCO4)cc3)nn12 (stereo not drawn) [Compound B5]", "CC50 at 3 days": "> 100 µM"}
{"compound": "CCc1cc(C(=O)N2CCCCCC2C)nc2cc(-c3ccc(N/C(=N/C#N)NCC4CCCO4)cc3F)nn12 (stereo not drawn) [Compound B16]", "CC50 at 3 days": "> 25.1 µM"}
{"compound": "CCc1cc(C(=O)N2CCc3ccccc3[C@H]2C)nc2cc(-c3ccc(-c4ccc(C(=O)O)cn4)cc3F)nn12 [Compound F23]", "CC50 at 3 days": "> 25.1 µM"}
{"compound": "C[C@@H]1CCCCCN1C(=O)c1cc(C2CC2)n2nc(-c3ccc4c(c3F)OCC(C(=O)O)=C4)cc2n1 [Compound F38]", "CC50 at 3 days": "36.3 µM"}
{"compound": "CCc1cc(C(=O)N2CCc3ccccc3C2C)nc2cc(-c3ccc(C(=O)O)cc3F)nn12 (stereo not drawn) [Compound K1]", "CC50 at 3 days": "> 25.1 µM"}
{"compound": "CCc1cc(C(=O)N2CCCCCC2C)nc2cc(-c3ccc(NC(=O)NC4CC4)cc3)nn12 (stereo not drawn) [Compound B8]", "CC50 at 3 days": "17 µM"}
{"compound": "CCc1cc(C(=O)N2CCCCCC2C)nc2cc(-c3ccc(-c4nc(C)c(C(=O)O)s4)cc3F)nn12 (stereo not drawn) [Compound F18]", "CC50 at 3 days": "> 25.1 µM"}
{"compound": "C[C@@H]1CCCCCN1C(=O)c1cc(-c2cnn(C)c2)n2nc(-c3ccc(/C=C/C(=O)O)cc3F)cc2n1 [Compound M30]", "CC50 at 3 days": "28.2 µM"}
{"compound": "CCc1cc(C(=O)N2CCCCCC2C)nc2cc(-c3ccc(-c4ccn[nH]4)cc3F)nn12 (stereo not drawn) [Compound F5]", "CC50 at 3 days": "> 25.1 µM"}
{"compound": "CCCC(C)N(CC)C(=O)c1cc(CC)n2nc(-c3ccc(C4C[C@H]4C(=O)O)cc3F)cc2n1 (mixture of isomers) [Compound O13]", "CC50 at 3 days": "45.7 µM"}
{"compound": "CC1c2ccsc2CCN1C(=O)c1cc(C2CC2)n2nc(-c3ccc(-n4cc(C(=O)O)cn4)cc3F)cc2n1 (stereo not drawn) [Compound W41]", "CC50 at 3 days": "> 25.1 µM"}
{"compound": "CCc1cc(C(=O)N2CCCCCCC2C)nc2cc(-c3ccc(C(N)=O)cc3)nn12 (stereo not drawn) [Compound A29]", "CC50 at 3 days": "> 25.1 µM"}
{"compound": "CCOC(=O)Nc1ccc(-c2cc3nc(C(=O)N4CCCCCC4C)cc(CC)n3n2)cc1 (stereo not drawn) [Compound C7]", "CC50 at 3 days": "> 100 µM"}
